condition_set: formula G derivatives; rabbit plasma, 37° C., sampling time 30 s
measured_attribute: Sampling time/dissociation percent (%) 30 S
Numbers only, in %.

Worked set:
compound	data_value
CC(C)c1cccc(C(C)C)c1OC(=O)C(CF)CP(=O)([O-])[O-].CC(C)c1cccc(C(C)C)c1OC(=O)C(CF)CP(=O)([O-])[O-].CC(C)c1cccc(C(C)C)c1OC(=O)C(CF)CP(=O)([O-])[O-].[Al+3].[Al+3] (racemic)	44.3
CC(C)c1cccc(C(C)C)c1OC(=O)C(F)CCOP(=O)([O-])[O-].[K+].[K+] (racemic)	68.7
CC(C)c1cccc(C(C)C)c1OC(=O)[C@@H](F)CCOP(=O)([O-])[O-].[Na+].[Na+]	54.3

For the next question, use this compound.
**Q:** Could you please provide reported Sampling time/dissociation percent (%) 30 S for CC(C)c1cccc(C(C)C)c1OC(=O)[C@@H](CCOP(=O)([O-])[O-])C(F)(F)F.[Li+].[Li+] ? Thanks!
**A:** 43.6

src = patent US10239851B2
